Every entry's value here was drawn from ChEMBL document CHEMBL1125065.

What EC50 was measured for each of the following?
# System: MT2
# assay: Effective concentration that increases formazan production in infected MT-2 cells
# Type: functional, cell-based
# study-conditions: Homo sapiens
One number for each entry, in µg/mL.

The cases that follow already have their EC50 on record.
compound | EC50 [µg/mL]
Nc1nc(N)c2ncn(C3C=CC(CO)C3)c2n1 (configuration not stated) | 4.7
Nc1nc(Cl)c2ncn(C3C=CC(CO)C3)c2n1 (configuration not stated) | 0.4
Nc1nc(N)c2ncn(C3CCC(CO)C3)c2n1 (configuration not stated) | 16.7
Nc1ccn([C@H]2CC[C@@H](CO)O2)c(=O)n1 | 0.29

Now for another entry.
GET /value?item= Nc1nc2c(ncn2[C@H]2C=C[C@@H](CO)C2)c(=O)[nH]1 &field=EC50 returns 0.19
